Protein target, amino acids: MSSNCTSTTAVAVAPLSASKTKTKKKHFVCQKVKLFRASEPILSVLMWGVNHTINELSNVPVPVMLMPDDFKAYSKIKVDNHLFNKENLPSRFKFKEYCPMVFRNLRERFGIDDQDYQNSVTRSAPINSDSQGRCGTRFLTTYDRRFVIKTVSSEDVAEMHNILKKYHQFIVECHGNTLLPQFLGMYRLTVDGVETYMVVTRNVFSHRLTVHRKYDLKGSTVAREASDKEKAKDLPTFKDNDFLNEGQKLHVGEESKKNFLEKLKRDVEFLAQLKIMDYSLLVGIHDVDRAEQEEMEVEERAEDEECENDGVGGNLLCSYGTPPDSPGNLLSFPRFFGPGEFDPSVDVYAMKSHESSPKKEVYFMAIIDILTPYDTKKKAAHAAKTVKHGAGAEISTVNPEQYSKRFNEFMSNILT
pIC50: −log10 of the molar value.
assayEndpoint: pIC50

compound: CC1Oc2cc(C(=O)N(C)C)ccc2-c2cnc(Nc3cnc4c(c3)N3C(=O)CC[C@H]3CO4)cc21 (stereo partly shown) [Example 33]
assayEndpoint: pIC50
reading: 8.00 to 9.00
--
compound: CC1c2cc(Nc3cccnc3)ncc2-c2ccc(N3CCCC3=O)cc2N1C (stereo not shown) [Example 43]
assayEndpoint: pIC50
reading: < 6.00
--
compound: O=C1CCCN1c1ccc2c(c1)OCc1cc(Nc3cnc4c(c3)N3C(=O)CC[C@H]3CO4)ncc1-2 [Example 75]
assayEndpoint: pIC50
reading: 8.00 to 9.00
--
compound: COC(=O)N1CCOc2ncc(Nc3cc4c(cn3)-c3ccc(N5CCCC5=O)cc3OC4C)cc21 (stereo not shown) [Example 83]
assayEndpoint: pIC50
reading: 8.00 to 9.00
--
compound: CC1Oc2cc(N3CCCC3=O)ccc2-c2cncc(Nc3ccncc3)c21 (stereo not shown) [Example 203]
assayEndpoint: pIC50
reading: < 6.00
--
compound: O=C1CCCN1c1ccc2c(c1)OCc1cc(Nc3cnc4c(c3)N3C(=O)CC[C@@H]3CO4)ncc1-2 [Example 182]
assayEndpoint: pIC50
reading: 8.00 to 9.00
--
compound: CC1Oc2cc(N3CCCC3=O)ccc2-c2cnc(Nc3cnc4c(c3)N(C(=O)C(C)(C)O)CCO4)cc21 (stereo not shown) [Example 59]
assayEndpoint: pIC50
reading: 8.00 to 9.00
--
compound: CC1Oc2cc(N3CCCC3=O)ccc2-c2cnc(Nc3cncc(NC(=O)Cc4ccccc4)c3)cc21 (stereo not shown) [Example 107]
assayEndpoint: pIC50
reading: 7.00 to 8.00
--
compound: CC(O)C(=O)N1CCOc2ncc(Nc3cc4c(cn3)-c3ccc(N5CCCC5=O)cc3OC4C)cc21 (stereo not shown) [Example 60]
assayEndpoint: pIC50
reading: 8.00 to 9.00
--
compound: CC1Oc2cc(N3CCCC3=O)ccc2-c2cnc(Nc3cncc(Nc4cccnn4)c3)cc21 (stereo not shown) [Example 131]
assayEndpoint: pIC50
reading: 7.00 to 8.00
--
compound: CC1Oc2cc(N3CCCC3=O)ccc2-c2cnc(Nc3cncc(NC(=O)c4ccc(NC=O)c(O)c4)c3)cc21 (stereo not shown) [Example 109A]
assayEndpoint: pIC50
reading: 7.00 to 8.00
--
compound: CC1Oc2cc(N3CCCC3=O)ccc2-c2cnc(Nc3cnc4c(c3)N3[C@H](CO4)CN(C)S3(=O)=O)cc21 (stereo partly shown) [Example 187]
assayEndpoint: pIC50
reading: 6.00 to 7.00
--
compound: CC1Oc2cc(N3CCCC3=O)ccc2-c2cnc(Nc3cncc(NC(=O)c4cccc5[nH]ccc45)c3)cc21 (stereo not shown) [Example 123]
assayEndpoint: pIC50
reading: 8.00 to 9.00

----------
The following molecules are shown together with reported IC50 values.
measuredOn: PIP4K 2A (Homo sapiens)
Sequence (P48426 whole entry): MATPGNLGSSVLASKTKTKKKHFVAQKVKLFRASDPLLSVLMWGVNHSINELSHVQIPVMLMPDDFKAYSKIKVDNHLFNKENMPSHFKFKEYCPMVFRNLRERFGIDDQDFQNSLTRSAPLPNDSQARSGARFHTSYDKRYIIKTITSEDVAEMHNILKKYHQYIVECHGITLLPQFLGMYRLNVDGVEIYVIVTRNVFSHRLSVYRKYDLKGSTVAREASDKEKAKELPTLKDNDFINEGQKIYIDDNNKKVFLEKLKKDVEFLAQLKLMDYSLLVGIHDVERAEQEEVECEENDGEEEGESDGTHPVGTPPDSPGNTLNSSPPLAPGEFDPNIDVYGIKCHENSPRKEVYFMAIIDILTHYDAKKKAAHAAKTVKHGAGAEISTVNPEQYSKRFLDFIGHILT
protocolDescription: ADP-glo kinase assay PIP4K 2A
Type: biochemical
Set-up: 4 nM PIP4K2A (full length protein, SignalChem); purchased SignalChem
protocolConditions: compounds listed under IC50 bin headings
assayEndpoint: IC50

molecule: CC1Oc2cc(C(=O)N(C)C)ccc2-c2cnc(Nc3cnc4c(c3)N(C(=O)C3CC3)CCO4)cc21 (stereo not shown) [Example 68]
measuredOn: PIP4K 2A (Homo sapiens)
reading: ≤ 1 nM
//
molecule: CC1Oc2cc(N3CCCC3=O)ccc2-c2cnc(Nc3cncc(NC(=O)c4ccc5cc[nH]c5c4)c3)cc21 (stereo not shown) [Example 108]
measuredOn: PIP4K 2A (Homo sapiens)
reading: 1 to 10 nM
//
molecule: CC1Oc2cc(N3CCCC3=O)ccc2-c2cnc(Nc3cnc4c(c3)N(S(=O)(=O)C(C)C)CCO4)cc21 (stereo not shown) [Example 85]
measuredOn: PIP4K 2A (Homo sapiens)
reading: 1 to 10 nM
//
molecule: CC1Oc2cc(N3CCCC3=O)ccc2-c2cnc(Nc3cncc(N(C)S(C)(=O)=O)c3)cc21 (stereo not shown) [Example 48]
measuredOn: PIP4K 2A (Homo sapiens)
reading: 1 to 10 nM
//
molecule: COCCC(=O)N1CCN(c2cncc(Nc3cc4c(cn3)-c3cc(F)c(N5CCCC5=O)cc3OC4)c2)CC1 [Example 171]
measuredOn: PIP4K 2A (Homo sapiens)
reading: 10 to 100 nM
//
molecule: CC1Oc2cc(N3CCCC3=O)ccc2-c2cnc(Nc3cncc(N4CCNC4=O)c3)cc21 (stereo not shown) [Example 55]
measuredOn: PIP4K 2A (Homo sapiens)
reading: 1 to 10 nM
//
molecule: CC1(C)Oc2cc(N3CCCC3=O)c(F)cc2-c2cnc(Nc3cnc4c(c3)OCCO4)cc21 [Example 167]
measuredOn: PIP4K 2A (Homo sapiens)
reading: ≤ 1 nM
//
molecule: CC1Oc2cc(N3CCCC3=O)ccc2-c2cnc(Nc3cnc4cccc(S(C)(=O)=O)c4c3)cc21 (stereo not shown) [Example 92]
measuredOn: PIP4K 2A (Homo sapiens)
reading: 1 to 10 nM
//
molecule: COc1ncc(Nc2cc3c(cn2)-c2ccc(N4CCCC4=O)cc2OC3C)cc1N(C)S(C)(=O)=O (stereo not shown) [Example 90]
measuredOn: PIP4K 2A (Homo sapiens)
reading: 10 to 100 nM
//
molecule: CC1Oc2cc(N3CCCC3=O)ccc2-c2cnc(Nc3cncc(Nc4cccnn4)c3)cc21 (stereo not shown) [Example 131]
measuredOn: PIP4K 2A (Homo sapiens)
reading: 1 to 10 nM
//
molecule: CC1Oc2cc(N3CCCC3=O)ccc2-c2cnc(Nc3cnc4nccnc4c3)cc21 (stereo not shown) [Example 63]
measuredOn: PIP4K 2A (Homo sapiens)
reading: 1 to 10 nM
//
molecule: CN(C)C/C=C/C(=O)Nc1ccc(C(=O)Nc2cncc(Nc3cc4c(cn3)-c3ccc(N5CCCC5=O)cc3OC4(C)C)c2)cc1 [Example 198]
measuredOn: PIP4K 2A (Homo sapiens)
reading: 1 to 10 nM
//
molecule: COCCC(=O)N1CCN(c2cncc(Nc3cc4c(cn3)-c3cc(F)c(N5CCCC5=O)cc3OC4(C)C)c2)CC1 [Example 173]
measuredOn: PIP4K 2A (Homo sapiens)
reading: 1 to 10 nM
//
molecule: CC1Oc2cc(C(=O)N(C)C)ccc2-c2cnc(Nc3cccnc3)cc21 (stereo not shown) [Example 31]
measuredOn: PIP4K 2A (Homo sapiens)
reading: 1 to 10 nM
//
molecule: CC1Oc2cc(C(=O)N(C)C)ccc2-c2cnc(Nc3cnc4c(c3)N3C(=O)CC[C@H]3CO4)cc21 (stereo partly shown) [Example 33]
measuredOn: PIP4K 2A (Homo sapiens)
reading: 1 to 10 nM
//
molecule: CC1Oc2cc(N3CCCC3=O)ccc2-c2cnc(Nc3cncc(NC(=O)c4ccccn4)c3)cc21 (stereo not shown) [Example 112]
measuredOn: PIP4K 2A (Homo sapiens)
reading: 1 to 10 nM
//
molecule: CC1Oc2cc(N3CCCC3=O)ccc2-c2cnc(Nc3cncc(NC(=O)c4ccc(NC=O)c(O)c4)c3)cc21 (stereo not shown) [Example 109A]
measuredOn: PIP4K 2A (Homo sapiens)
reading: 1 to 10 nM
//
molecule: CC1Oc2cc(N3CCCC3=O)ccc2-c2cnc(Nc3cnc4c(c3)N3C(=O)CC[C@H]3CO4)cc21 (stereo partly shown) [Example 40]
measuredOn: PIP4K 2A (Homo sapiens)
reading: ≤ 1 nM
//
molecule: COc1cccc(C(=O)Nc2cncc(Nc3cc4c(cn3)-c3ccc(N5CCCC5=O)cc3OC4C)c2)c1 (stereo not shown) [Example 121]
measuredOn: PIP4K 2A (Homo sapiens)
reading: ≤ 1 nM
//
molecule: CNC(=O)Nc1cncc(Nc2cc3c(cn2)-c2ccc(N4CCCC4=O)cc2OC3C)c1 (stereo not shown) [Example 99]
measuredOn: PIP4K 2A (Homo sapiens)
reading: 1 to 10 nM
//
molecule: CC1Oc2cc(N3CCCC3=O)ccc2-c2cnc(Nc3cncc(NC(=O)c4ccc5c(c4)OCO5)c3)cc21 (stereo not shown) [Example 136]
measuredOn: PIP4K 2A (Homo sapiens)
reading: 1 to 10 nM
//
molecule: CC1c2cc(Nc3cccnc3)ncc2-c2ccc(N3CCCC3=O)cc2N1C (stereo not shown) [Example 43]
measuredOn: PIP4K 2A (Homo sapiens)
reading: 10 to 100 nM
